Hi there, I'd appreciate the recorded % Max Inhibition, AP challenge, IP-One for every entry that follows.
- study-target: T1, Wildtype human PAR2 expressed on cells (human, UniProt P55085 37-397)
- T1 sequence: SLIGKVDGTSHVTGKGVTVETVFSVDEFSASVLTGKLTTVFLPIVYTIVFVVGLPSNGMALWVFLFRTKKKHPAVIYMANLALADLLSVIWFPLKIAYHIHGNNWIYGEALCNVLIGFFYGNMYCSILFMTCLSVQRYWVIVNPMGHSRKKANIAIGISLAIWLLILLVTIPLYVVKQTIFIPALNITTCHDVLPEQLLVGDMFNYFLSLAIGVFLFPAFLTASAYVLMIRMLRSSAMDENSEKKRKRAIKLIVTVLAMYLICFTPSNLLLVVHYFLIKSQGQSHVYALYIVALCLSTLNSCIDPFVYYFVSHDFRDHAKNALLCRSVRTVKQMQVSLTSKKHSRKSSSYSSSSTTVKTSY
- assay: cell-based or functional assay
Numbers only here, please. The scale is %.

Request: Endpoint output: % Max Inhibition, AP challenge, IP-One of Y022883 (antibody, human IgG1, lambda, V domains shown, also called Y22883; Y02283) VH: EVQLLESGGGLVQPGGSLRLSCAASGFSFTRYAISWVRQAPGKGLEWVSVISGHGSEANYAESVKGRFTISRDNSKNTLYLQMNSLRAEDTAVYYCARGFHYTHSGKRYYYPFDIWGQGTLVTVSS VL: QSALTQPASVSGSPGQSITISCTGTSSDVGSYNLVSWYQQHPGKAPKLMIYEGSKRPSGVSNRFSGSKSGNTASLTISGLQAEDEADYYCSQYATFIAFAVFGGGTKLTVLG . Value?
Result: 149

Request: Then this binder: Y022870 (antibody, human IgG1, lambda, V domains shown, also called Y22870) VH: EVQLLESGGGLVQPGGSLRLSCAASGFSFSRYAITWVRQAPGKGLEWVSTISALGLETYYAESVRGRFTISRDNSKNTLYLQMNSLRAEDTAVYYCARGFHYTHSGKRYYYPFDIWGQGTLVTVSS VL: QSALTQPASVSGSPGQSITISCTGTSSDVGSYNLVSWYQQHPGKAPKLMIYEGSKRPSGVSNRFSGSKSGNTASLTISGLQAEDEADYYCSQYATFIAFAVFGGGTKLTVLG
Result: 203

Request: Then this binder: Y021171 (antibody, V domains shown) VH: EVQLVESGGGLVKPGGSLRLSCAASGFTFSSYSINWVRQAPGKGLEWVSSISSSSSYTYYAESVKGRFTISRDNAKNSLYLQMNSLRAEDTAVYYCARAASGFAIFDYWGQGTLVTVSS VL: DIQMTQSPSSVSASVGDRVTITCRASQGISSWLAWYQQKPGKAPKLLIYAASSLQSGVPSRFSGSGSGTDFTLTISSLQPEDFATYYCQQTHYVPLTFGQGTKVEIKR
Result: 163

Request: Then this binder: Y022877 (antibody, human IgG1, lambda, V domains shown, also called Y22877) VH: EVQLLESGGGLVQPGGSLRLSCAASGFTFSRYAMTWVRQAPGKGLEWVSTISGLGQEAYYAGSVKGRFTISRDNSKNTLYLQMNSLRAEDTAVYYCARGFHYTHSGKRYYYPFDIWGQGTLVTVSS VL: QSALTQPASVSGSPGQSITISCTGTSSDVGSYNLVSWYQQHPGKAPKLMIYEGSKRPSGVSNRFSGSKSGNTASLTISGLQAEDEADYYCSQYATFIAFAVFGGGTKLTVLG
Result: 167

meta.source: patent US20250313621A1
